Listed compounds paired with reported GI50
- Tested on: HCT-116 colon
- Assay Overview: NCI tumour cell line growth inhibition, 48 h

Examples from the recorded data:
Compound	Data Value
Cc1cn(Cc2ccccc2CCl)c(=O)n(Cc2ccccc2CCl)c1=O	1.55 µM
CCC(=O)c1c(C(F)(F)F)n([O-])c2ccccc2[n+]1=O	1.56 µM
Oc1ccc(O)c2c1C1(Cl)C(Cl)=C(Cl)C2(Cl)C1(Cl)Cl	3.07 µM
CN(C)c1ncnc2c1ccn2C1OC(CO)C(O)C1O (stereo not given)	2.97 µM
O=C1c2ccn(CCCCN(CCO)CCO)c2C(=O)c2c1c(O)c1ccccc1c2O	2.04 µM

Notebook: `COc1cc2c(cc1OCCCCCn1c3ccccc3c3ccccc31)N=C[C@@H]1CCCN1C2=O` , GI50 read as 1.65 µM

Notebook: `O=C(CN1C(=O)S/C(=C\C(Cl)=C\c2ccccc2)C1=O)NCCCn1ccnc1` , GI50 read as 1.53 µM

Notebook: O=C(NN1C(=O)CSC12CCC(c1ccccc1)CC2)c1[nH]c2ccc(F)cc2c1-c1ccccc1 (stereo not given) , GI50 read as 14 µM

Notebook: CCCCN(CCCC)CCC(O)c1cc2ccc(C(F)(F)F)cc2c2cc(C(F)(F)F)ccc12 (stereo not given) , GI50 read as 1.59 µM

Notebook: Cn1ncnc1C1c2n[nH]c(=O)c3cc(F)cc(c23)NC1c1ccc(F)cc1 (stereo not given) , GI50 read as 25.8 µM

###

Listed compounds paired with reported GI50
- System: HCC-2998 colon
- Assay Overview: NCI tumour cell line growth inhibition, 48 h

Examples from the recorded data:
Compound	Data Value
CCCC(CCC)C(=O)OCC1(CO)C/C(=C\c2ccc(C(F)(F)F)cc2)C(=O)O1 (stereo not given)	10900 nM
CCCCN(CCCC)CCC(O)c1cc2ccc(C(F)(F)F)cc2c2cc(C(F)(F)F)ccc12 (stereo not given)	2080 nM
CN(C)c1ncnc2c1ccn2C1OC(CO)C(O)C1O (stereo not given)	1890 nM
Nc1cc(-c2ccccc2)n(C(=O)Nc2ccc(Oc3ccccc3)cc2)n1	> 100000 nM

Notebook: `COc1cc2nc(N3CCC[C@@H](NC4=CC(=O)c5ccccc5C4=O)C3)nc(N)c2cc1OC` , GI50 read as 1850 nM

Notebook: `Cc1cn(Cc2ccccc2CCl)c(=O)n(Cc2ccccc2CCl)c1=O` , GI50 read as 1500 nM

###

Listed compounds paired with reported TGI
- System: KM12 colon
- Assay Overview: NCI tumour cell line growth inhibition, 48 h

Examples from the recorded data:
Compound	Target Desc	TGI
CC(=O)C1=NN(c2ccccc2)C2(S1)SC(c1ccccc1)(c1ccccc1)c1ccccc12 (stereo not given)	KM12 colon	> 100 µM
COC(=O)CNCC1OC2OC(C)(C)OC2C1N=[N+]=[N-] (stereo not given)	KM12 colon	> 100 µM
COC1C(OC(N)=O)C(O)C(Oc2ccc3c(O)c(NC(=O)c4ccc(O)c(CC=C(C)C)c4)c(=O)oc3c2C)OC1(C)C (stereo not given)	KM12 colon	> 100 µM

Notebook: `c1ccc(CSC(SCc2ccccc2)c2ccc3c(c2)OCO3)cc1` , TGI read as > 10 µM

Notebook: COC1(Cc2ccccc2)C(=O)c2ccccc2N1C(C)=O (stereo not given) , TGI read as > 100 µM

Notebook: `Nc1ccccc1C#C/C=C\C#Cc1ccccc1F` , TGI read as 11 µM

Notebook: `COc1ccc2c(c1OC)C(=O)O[C@@H]2[C@H]1c2c(c(Br)c3c(c2OC)OCO3)CCN1C` , TGI read as > 100 µM

Notebook: `COc1cc2c(cc1OCCCCN1CCN(CCCCOc3cc4c(cc3OC)C(=O)N3CCC[C@H]3C=N4)CC1)N=C[C@@H]1CCCN1C2=O` , TGI read as 0.204 µM

Notebook: Cc1cc(C(O)CNC(C)CCn2cnc3c2c(=O)n(C)c(=O)n3C)ccc1O (stereo not given) , TGI read as > 100 µM

Notebook: `O=c1[nH]c2c(c3ccccc13)CCc1ccccc1-2` , TGI read as > 100 µM

Attribution: PubChem BioAssay (NCI)
